Source listed as PubChem BioAssay AID602410.

- measurementTarget: Potassium channel subfamily K member 3 (Homo sapiens)
- assayOverview: human KCNK3 channel inhibitors, primary screen, CHO cells, FluxOR thallium flux, B-score (AID 602410);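 on B-score: more negative B-score means stronger inhibition of thallium flux through KCNK3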
- particulars: FluxOR fluorescence, at 10 µM
The campaign covered roughly 340,000 compounds. About 2,800 (0.82%) were called active.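 How the source made its calls: active means B-score under library mean minus 4 SD, starting fluorescence ratio at most library mean plus 5 SD; inactive means the rest.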 The sample holds actives, similar compounds and a random draw of the others, so the mix is not that of the screen.
Outcome codes: class 1 = active, class 0 = inactive

INSERT INTO measurements (molecule, classification) VALUES
  ('CS/C(=C\C(=O)c1ccco1)Nc1ccccc1Cl', 'class 1'),
  ('CCOC(=O)N1CCC(N(CCOC)C(=O)Nc2ccc(C)c(C)c2)CC1', 'class 0'),
  ('Cc1csc2nc(O)c(C(=O)NCCN3CCOCC3)c(=O)n12', 'class 0'),
  ('NC(=O)C1CCN(C(=O)CC2C(=O)NCCN2Cc2cccc(Oc3ccccc3)c2)CC1 (centres undefined)', 'class 0'),
  ('Cc1nc(=O)c(-c2ccccc2)c(C)n1-c1ccc(Br)cc1', 'class 0'),
  ('Cc1onc(-c2ccccc2)c1C(=O)N=C(N)c1ccc(Cl)cc1', 'class 0'),
  ('O=C1Nc2ccc(Br)cc2/C1=N/N=C/C1=C(N2CCOCC2)C(=C\c2ccccc2)/CC1', 'class 0'),
  ('O=C(CC1CCCCC1)Nc1c2c(nn1-c1ccc(F)cc1)CS(=O)(=O)C2', 'class 0'),
  ('COC(=O)c1cccc(-n2[nH]nnc2=S)c1', 'class 0'),
  ('COc1ccc(C(C)=O)cc1COc1ccc(Cl)c(C)c1', 'class 1'),
  ('Clc1ccc(-c2cc(C3CCNCC3)[nH]n2)c(Cl)c1', 'class 0'),
  ('Cc1nn(C)c(Oc2ccc(Cl)cc2)c1C=O', 'class 0'),
  ('CN(C)S(=O)(=O)c1ccc(NC(=O)COC(=O)Cn2[nH]c(=O)c3ccccc3c2=O)cc1', 'class 0'),
  ('O=C(OCN1C(=O)c2ccccc2C1=O)/C(=C\c1ccco1)NC(=O)c1ccccc1', 'class 0'),
  ('COC(=O)C1=C(C)N(C(C)c2ccccc2)C(=O)/C1=C\c1ccco1 (centres undefined)', 'class 1'),
  ('COCCNC(=O)Cn1cc(C(=O)c2cccs2)c2ccccc21', 'class 0'),
  ('N/C(=N\OC(=O)CCn1cccc(C(F)(F)F)c1=O)c1ccc(OC(F)(F)F)cc1', 'class 0'),
  ('Cc1nc2cccnc2nc1C', 'class 0'),
  ('N#C/C(=C\C1=C(N2CCOCC2)C(=C\c2ccccc2)/CC1)C(=O)Nc1ccccc1F', 'class 0');

====

- measurementTarget: Potassium channel subfamily K member 3 (Homo sapiens)
- assayOverview: human KCNK3 channel inhibitors, primary screen, CHO cells, FluxOR thallium flux, B-score (AID 602410);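 on B-score: more negative B-score means stronger inhibition of thallium flux through KCNK3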
- particulars: FluxOR fluorescence, at 10 µM
The campaign covered roughly 340,000 compounds. About 2,800 (0.82%) were called active.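 The calls were made as follows: active = B-score under library mean minus 4 SD, starting fluorescence ratio at most library mean plus 5 SD; inactive = the rest.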 The entries come from a sample that favours actives as a whole.
Outcome codes: active, inactive

INSERT INTO assay_data (mol, classification) VALUES
  ('COc1ccccc1C(=O)Nc1ccccc1C(=O)Nc1ccccc1', 'inactive'),
  ('O=C(O)/C=C\C(=O)Nc1ccc(OCc2ccccc2)cc1', 'inactive'),
  ('O=C(NCCCO)c1cc2c([nH]c3ccccc32)c(-c2ccc(F)cc2)n1', 'inactive'),
  ('O=C(COC(=O)Cc1ccccc1F)NCCc1ccccc1', 'inactive'),
  ('CCOc1ccc(NC(=O)c2ccccc2NS(C)(=O)=O)cc1', 'inactive'),
  ('COc1cc(NC(=O)c2ccccc2NS(=O)(=O)c2ccc(Cl)s2)cc(OC)c1', 'active'),
  ('CN(Cc1ccccc1)C(=O)c1ccc(COc2ccccc2)cc1', 'inactive'),
  ('[O-][n+]1ccc(OCc2ccccc2)cc1', 'active'),
  ('O=C(NCCN1CCOCC1)Nc1cccc(Cl)c1', 'inactive'),
  ('COc1ccc(S(=O)(=O)N(C)CC(=O)NCCCN2CCOCC2)cc1Cl', 'inactive'),
  ('N#Cc1ccc(S(=O)(=O)NCC(=O)OCC(=O)NCCc2ccccc2)cc1', 'active');
